Reference source: PubChem BioAssay (NCI)

# Tested on: KM12 colon
# RUN_DESCRIPTION: NCI-60 one-dose screen, 48 h (100 = growth as untreated, 0 = no growth, -100 = all killed)
# CONDITION_SET: 10 µM unless noted
Compounds without any hit were thinned out: in the full panel of roughly 83,000, 20% have a hit.
Binary label based on growth with cut-off 80%: below gives 1.0, not below gives 0.0.

Field: example entries. Status: answers known.
CC1(C)CCC[C@]23C(=O)O[C@](O)(C(=O)C4=C[C@@](C)(/C=C/CCCc5ccc6ccc7cccc8ccc5c6c78)CC[C@@]42O)[C@@H]13 | 1.0
O=C(CSc1nnc(-c2cc(-c3ccc(Cl)cc3)nc3ccccc23)n1-c1ccccc1)Nc1ccc(Cl)cc1 | 0.0
Cc1ccc(NC(=O)c2ccc(Nc3ncnc4c3cnn4-c3cccc(F)c3)cc2)cc1 | 0.0
Nc1c(C(=O)c2ccc(Cl)cc2)sc(Nc2ccccc2)c1-c1nc2ccccc2s1 | 1.0

A record lists Cc1ccc2c(n1)C[C@H](C(C)(C)O)CC[C@H]2C . Is its growth below 80%?
0.0

Confirm or reject: growth of CC(C)(C)n1cc(-c2ccnc(NCCNS(=O)(=O)c3ccc(Br)cc3)c2)c(-c2cccc(O)c2)n1 lies strictly below 80%
1.0

Lab note: growth threshold 80%. Does this compound come in strictly under it? COc1cc(C)cc(-c2c(-c3cc(N4CC(O)C4)nc(-c4cccnc4)n3)cnn2C)c1
0.0

Just wondering, is growth of CC(=O)/C(Br)=C/c1ccc(Br)o1 below 80%?
0.0

----------
# System: UACC-257 melanoma
# RUN_DESCRIPTION: NCI-60 one-dose screen, 48 h
# CONDITION_SET: 10 µM unless noted
This is part of a sample that, as a whole, favours compounds with a hit. Of some 83,000 tested, about 20% had one in any assay. Activity calls are given as the source filed them. The calls were made as follows: active = growth percent below 10; inactive = the rest.
A correct response names exactly one class from label 1 = active, label 0 = inactive

c1ccc2c(-c3cnn4cc(-c5ccc(N6CCNCC6)cc5)cnc34)ccnc2c1 | label 1
Fc1ccc(/C=C/c2cc(/C=C/c3ccc(F)cc3)n(-c3cc(F)cc(F)c3)n2)cc1 | label 0

# next compound below
Field: outcome | Entry: CCCCC/C=C/CCC(=O)N[C@H]1[C@H](Oc2c3cc4cc2Oc2ccc(cc2Cl)[C@@H](O[C@@H]2O[C@H](CO)[C@@H](O)[C@H](O)[C@H]2NC(C)=O)[C@@H]2NC(=O)[C@H](NC(=O)[C@@H]4NC(=O)[C@H]4NC(=O)[C@@H](Cc5ccc(c(Cl)c5)O3)NC(=O)[C@@H](N)c3ccc(O)c(c3)Oc3cc(O)cc4c3)c3ccc(O)c(c3)-c3c(O[C@H]4O[C@H](CO)[C@@H](O)[C@H](O)[C@@H]4O)cc(O)cc3[C@H](C(=O)O)NC2=O)O[C@H](CO)[C@H](O)[C@@H]1O
label 0

----------
# System: KM12 colon
# RUN_DESCRIPTION: NCI-60 one-dose screen, 48 h (100 = growth as untreated, 0 = no growth, -100 = all killed)
# CONDITION_SET: 10 µM unless noted
About 83,000 compounds went through this panel and 20% of them were active in at least one assay; those are over-represented in the sample as a whole. Activity calls are given as the source filed them. The calls were made as follows: active = growth percent below 10; inactive = the rest.
PARAMETER: growth

C#CCOc1cccc(Nc2c(Cl)c(CCl)nc3ccc(Oc4ccccc4)cc23)c1 | 69.7% (inactive)

Looking up O=C1CC2C=CCN2C=C1NC(=O)c1ccccc1 (stereo unspecified) , I see its growth listed as 101% (inactive)

Kindly note the recorded growth for O=C(/C=C/C12c3ccccc3C(c3ccccc31)C1C(=O)NC(=O)C12)c1cccs1 (stereo unspecified) , which is 22.6% (inactive)

For Cc1cccc(C)c1NC(=O)Nc1ccccc1 the compound record lists growth as 102% (inactive)

Lab note: COc1nc2ccccc2cc1/C=C1/C=C(c2ccccc2)NC1=O gave growth of 31.5% (inactive)

# growth (compound: O=S(=O)(c1ccc(NCSc2nc3ccccc3s2)cc1)c1ccc(NCSc2nc3ccccc3s2)cc1 ) is 102% (inactive)

Please fill in: growth reported for CC(=O)CC(=O)c1ccccc1.[Cu+2] = 98.2% (inactive)

Record CCc1ccc(Cc2cnc(NC(=O)c3cc(C)oc3C)s2)cc1 , field growth: 22% (inactive)

// growth value for O=C1/C(=C/c2ccc(Br)cc2)COc2ccc(O)cc21 : 26.8% (inactive)

Just so you know, measured growth for CC1=NN(c2cccc(Cl)c2)C(=O)/C1=C\C=C\c1ccccc1 came out at 16.1% (inactive)

// COc1ccccc1/C=C/C1=C(C)CCC(c2ccccc2OC)C1C (stereo unspecified) : growth value = 6.67% (active)

----------
# Tested on: HCT-116 colon
# RUN_DESCRIPTION: NCI-60 one-dose screen, 48 h (100 = growth as untreated, 0 = no growth, -100 = all killed)
# CONDITION_SET: 10 µM unless noted
This is part of a sample that, as a whole, favours compounds with a hit. Of some 83,000 tested, about 20% had one in any assay.
growth: recorded values
Answer in %, number only, no unit symbol.

Field: example entries. Status: answers known.
O=C(Nc1ncc(Cc2ccc(Cl)cc2)s1)c1ccc2c(c1)OCCO2 | 9.61
CN(C)C(=S)NN=C(c1ccccn1)c1ccccn1 | 20.5
O=C1N/C(=N/N=C(c2ccccc2)c2ccccc2)S/C1=C\c1ccc(Br)cc1 | 81.8
COc1ccc2c(c1)c(-c1nc(-c3cn(C)c4ccncc34)cs1)cn2C | -88.6
CC(C)n1nc(-c2ccc3oc(N)nc3c2)c2c(N)ncnc21 | 7.89

Briefly, growth measured for CN1CCN(Cc2ccc(NC(=O)c3cncc(C#Cc4c(N)ncc5cc(F)ccc45)c3)cc2C(F)(F)F)CC1 : -78.7

For record Cc1cc(C)n(C(=O)CSc2nc3sc4c(c3c(=O)n2-c2ccccc2)CCCCC4)n1 the listed growth is 104

Reported growth ( Cc1ccccc1NC(=O)c1sc2nc3c(cc2c1N)CCCC3 ) = 29

Kindly note the recorded growth for Cn1ccnc1C(=O)/C=C/c1ccc(C(=O)Nc2c(F)c(F)c(F)c(F)c2F)cc1 , which is -21.5

Input COc1cc2c(cc1-c1c(C)noc1C)ncc1nc(C3CCOCC3)n(C3CCC(OC(F)F)CC3)c12 (stereo not given) . Output growth: 66.1

----------
# System: SNB-75 CNS
# RUN_DESCRIPTION: NCI-60 one-dose screen, 48 h
# CONDITION_SET: 10 µM unless noted
Compounds without any hit were thinned out: in the full panel of roughly 83,000, 20% have a hit. Activity calls are given as the source filed them. The calls were made as follows: active = growth percent below 10; inactive = the rest.
Please reply with one of these outcomes: active, inactive

CS(=O)(=O)c1cccc(Nc2ncc3cc(-c4ccccc4Cl)ccc3n2)c1 | active
C#CCOc1ccc(C2=NN(CCCC)C3N=C(Cl)c4ncn(CCCC)c4N23)cc1OCC#C (stereo not given) | inactive
CN1C(=O)N(C)C2C1NN=c1s/c(=C\c3ccc(F)cc3)c(=O)n12 (stereo not given) | active
CCOc1ccc(-c2cc(C3(S(=O)(=O)c4ccc(C)cc4)CC=CC3)on2)cc1 | inactive
C=C(C[n+]1ccccc1)[C@@H]1CC[C@]2(C(=O)OC)CC[C@]3(C)[C@H](CC[C@@H]4[C@@]5(C)CCC(=O)C(C)(C)[C@@H]5CC[C@]43C)[C@@H]12 | inactive

Which outcome was assigned to Nc1nc(N)c2c(n1)NC(c1ccc3c(c1)OCO3)CC(c1cccc(Nc3ccncc3)c1)=N2 (stereo not given) in this test?
inactive

Any idea what this test logged for N#CC1=C(N)Oc2c(ccc3ccccc23)C1c1cc2ccccc2n2nnnc12 (stereo not given) ?
active

What is the recorded call for this molecule in the test? Cc1nc2ccccc2c(/C=C/c2ccc(Br)cc2)c1C(=O)/C=C/c1ccccc1
inactive

Please let me know the test result on file for O=c1ccc2c(ccc3ncccc32)o1 .
inactive

Given CC(C)(C)n1cc(-c2ccnc(NCCNS(=O)(=O)c3cccc4ccccc34)c2)c(-c2cccc(O)c2)n1 , state the outcome it received in this test.
inactive

# outcome recorded in this test, key = COc1ccc(S(=O)(=O)N(C)c2oc(-c3ccc(Cl)cc3)nc2C#N)cc1
inactive

I'd appreciate the recorded outcome for N=C(N)c1ccc(-c2ccc(-c3ccccc3)s2)nc1 from this test.
inactive

Outcome logged for CCN1C(=O)N(CC)C2C1NC(=S)N2/N=C/C=C/c1ccccc1 (stereo not given) in this assay:
inactive

What outcome does the record of this test show for CC1=NC(=S)NC(c2ccccc2)/C1=C1/CC(c2ccccc2O)NN1 (stereo not given) ?
inactive

What was the test verdict on COc1cccc2cc(N(C)c3ncnc4ccccc34)ccc12 ?
inactive

Test call, this molecule: CCCCC1=C(Br)C(=O)c2ncccc2C1=O
inactive

Entry O=C(Nc1ncc(Cc2ccccc2)s1)c1cc(-c2ccccc2)nc2ccccc12 : call = ?
inactive

Please share the test call associated with COc1nc2ccccc2cc1/C=C1/C=C(c2ccccc2)NC1=O .
inactive

Hi, sorry to bother you, what did the test record for Nc1n[nH]c2cccc(C#Cc3cccc(C(=O)Nc4ccc(Cl)c(C(F)(F)F)c4)c3)c12 ?
inactive

Please share the test call associated with O=C(/C=C/c1ccco1)c1ccc(Nc2ccnc3cc(Cl)ccc23)cc1 .
inactive
